Recorded solubility kinetic, one value per entry.
assay: Kinetic solubility of the compound in water at pH 7 by HPLC analysis; format: physicochemical; settings: read-out: Kinetic_solubility
result type: solubility kinetic (µg/mL)

> print(dat)
                              record.smiles  readout.units  measurement
1  O=C(O[C@@H]1COc2nc([N+](=O)[O-])cn2C1)N1CC[C@H](Oc2ccc(OC(F)(F)F)cc2)C1          µg/mL           21
2  O=[N+]([O-])c1cn2c(n1)OC[C@@H](NS(=O)(=O)c1ccc(OC(F)(F)F)cc1)C2          µg/mL          6.1
3  O=C(Nc1cccc(-c2ccc(C(F)(F)F)nc2)c1)O[C@@H]1COc2nc([N+](=O)[O-])cn2C1          µg/mL          5.8
4  O=C(Nc1cccc(-c2ccc(OC(F)(F)F)cc2)c1)O[C@@H]1COc2nc([N+](=O)[O-])cn2C1          µg/mL         0.07
5  O=C(CO[C@@H]1COc2nc([N+](=O)[O-])cn2C1)Nc1ccc(OC(F)(F)F)cc1          µg/mL           68
6  O=C(N[C@@H]1COc2nc([N+](=O)[O-])cn2C1)c1ccc(OC(F)(F)F)cc1          µg/mL          109
7  O=C(Nc1ccc(OC(F)(F)F)cc1)N[C@@H]1COc2nc([N+](=O)[O-])cn2C1          µg/mL           93
8  CN(C(=O)N(C)[C@@H]1COc2nc([N+](=O)[O-])cn2C1)c1ccc(OC(F)(F)F)cc1          µg/mL           38

###

assay: Half life in CD-1 mouse plasma at 40 mg/kg, po; format: ADME, organism-based; parameters: dose 40 mg/kg, route oral
Recorded half-life, one value per entry.
result type: half-life (h)

> print(dat)
                              record.smiles  readout.units  measurement
1  O=C(O[C@@H]1COc2nc([N+](=O)[O-])cn2C1)N1CCN(c2ccc(OC(F)(F)F)cc2)CC1              h         10.5
2  O=C(Nc1ccc(-c2ccc(OC(F)(F)F)cc2)cc1)O[C@@H]1COc2nc([N+](=O)[O-])cn2C1              h         62.3
3  O=C(Nc1ccc(-c2ccc(OC(F)(F)F)cc2)cc1)N[C@@H]1COc2nc([N+](=O)[O-])cn2C1              h          6.3
4  O=C(Nc1ccc(OC(F)(F)F)cc1)O[C@@H]1COc2nc([N+](=O)[O-])cn2C1              h          9.8

###

test: AUC (0 to 72 hrs) in high fat diet fed Beagle dog at 20 mg/kg, po; format: ADME, organism-based, Canis lupus familiaris; set-up: time < 72 hr, dose 20 mg/kg, route oral; conditions: plasma
result type: AUC(0-t) at 72 h (µg·h/mL)

> print(dat)
                              record.smiles  measurement
1  O=C(O[C@@H]1COc2nc([N+](=O)[O-])cn2C1)N1CCN(c2ccc(OC(F)(F)F)cc2)CC1          182

###

experiment: Tmax in Sprague-Dawley rat at 20 mg/kg, po; type: ADME, organism-based; set-up: dose 20 mg/kg, route oral; settings: in vivo
result type: Tmax (h)

> print(dat)
                              record.smiles  measurement
1  O=C(O[C@@H]1COc2nc([N+](=O)[O-])cn2C1)N1CCN(c2ccc(OC(F)(F)F)cc2)CC1            5

###

assay: Metabolic stability of the compound in human liver microsomes assessed as compound remaining after 1 hr; type: ADME, Microsome; conditions: read-out: Stability
result type: remaining at 1 h

> print(dat)
                              record.smiles  measurement
1  O=C(O[C@@H]1COc2nc([N+](=O)[O-])cn2C1)N1CCN(c2ccc(OC(F)(F)F)cc2)CC1          82%
2  O=C(Nc1ccc(OC(F)(F)F)cc1)O[C@@H]1COc2nc([N+](=O)[O-])cn2C1          88%
3  O=C(Nc1cccc(-c2ccc(OC(F)(F)F)cc2)c1)N[C@@H]1COc2nc([N+](=O)[O-])cn2C1          86%
4  O=C(Nc1cccc(-c2ccc(C(F)(F)F)nc2)c1)O[C@@H]1COc2nc([N+](=O)[O-])cn2C1          89%
5  O=C(Nc1ccc(-c2ccc(OC(F)(F)F)cc2)cc1)N[C@@H]1COc2nc([N+](=O)[O-])cn2C1          91%
6  O=C(Nc1cccc(-c2ccc(OC(F)(F)F)cc2)c1)O[C@@H]1COc2nc([N+](=O)[O-])cn2C1          88%
7  O=C(Nc1ccc(-c2ccc(OC(F)(F)F)cc2)cc1)O[C@@H]1COc2nc([N+](=O)[O-])cn2C1         100%
8  O=C(CO[C@@H]1COc2nc([N+](=O)[O-])cn2C1)Nc1ccc(OC(F)(F)F)cc1         100%
9  CN(C(=O)O[C@@H]1COc2nc([N+](=O)[O-])cn2C1)c1ccc(OC(F)(F)F)cc1          37%

###

assay: Half life in Beagle dog at 20 mg/kg, po; format: ADME, organism-based, Canis lupus familiaris; parameters: dose 20 mg/kg, route oral; conditions: in vivo
result type: half-life (h)

> print(dat)
                              record.smiles  result.type  readout.units  measurement
1  O=C(O[C@@H]1COc2nc([N+](=O)[O-])cn2C1)N1CCN(c2ccc(OC(F)(F)F)cc2)CC1    half-life              h           29

###

test: Thermodynamic solubility of the compound at pH 1; type: physicochemical; conditions: buffer, read-out: Therm_solubility
Recorded solubility thermodynamic, one value per entry.
result type: solubility thermodynamic (µM)

> print(dat)
                              record.smiles  measurement
1  O=C(O[C@@H]1COc2nc([N+](=O)[O-])cn2C1)N1CCN(c2ccc(OC(F)(F)F)cc2)CC1          169
2  O=[N+]([O-])c1cn2c(n1)OC[C@@H](OCc1ccc(OC(F)(F)F)cc1)C2           30

###

assay: Tmax in Beagle dog at 2 mg/kg, iv; assay type: ADME, organism-based, Canis lupus familiaris; set-up: dose 2 mg/kg, route intravenous; conditions: in vivo
result type: Tmax (min)

> print(dat)
                              record.smiles  measurement
1  O=C(O[C@@H]1COc2nc([N+](=O)[O-])cn2C1)N1CCN(c2ccc(OC(F)(F)F)cc2)CC1           30

###

assay: Kinetic solubility of the compound in water at pH 7 by HPLC analysis; type: physicochemical; details: read-out: Kinetic_solubility
result type: solubility kinetic (µg/mL)

> print(dat)
                              record.smiles  measurement
1  O=[N+]([O-])c1cn2c(n1)OC[C@@H](NCc1ccc(OC(F)(F)F)cc1)C2          131
2  O=C(O[C@@H]1COc2nc([N+](=O)[O-])cn2C1)N1CCN(c2ccc(OC(F)(F)F)cc2)CC1           17
3  O=C(NCc1ccc(-c2ccc(OC(F)(F)F)cc2)cc1)N[C@@H]1COc2nc([N+](=O)[O-])cn2C1         0.94

###

assay: Ratio AUC (0 to infinity) in CD-1 mouse lung to AUC (0 to infinity) in CD-1 mouse plasma at 40 mg/kg, po; format: ADME, organism-based; design: dose 40 mg/kg, route oral; conditions: read-out: Ratio AUC
Recorded Kp, one value per entry.
result type: Kp

> print(dat)
                              record.smiles  measurement
1  O=C(Nc1ccc(OC(F)(F)F)cc1)O[C@@H]1COc2nc([N+](=O)[O-])cn2C1          1.5
2  O=C(Nc1ccc(-c2ccc(OC(F)(F)F)cc2)cc1)N[C@@H]1COc2nc([N+](=O)[O-])cn2C1          > 9
3  O=C(Nc1ccc(-c2ccc(OC(F)(F)F)cc2)cc1)O[C@@H]1COc2nc([N+](=O)[O-])cn2C1          > 3

###

assay: AUC (0 to 72 hrs) in Beagle dog at 2 mg/kg, iv; assay type: ADME, organism-based, Canis lupus familiaris; set-up: time < 72 hr, dose 2 mg/kg, route intravenous; conditions: plasma
result type: AUC(0-t) at 72 h

> print(dat)
                              record.smiles    measurement
1  O=C(O[C@@H]1COc2nc([N+](=O)[O-])cn2C1)N1CCN(c2ccc(OC(F)(F)F)cc2)CC1  27600 ng·h/mL
